Source: paper PMC10397247

# assay_target: T1, 4H3697-AA
# T1 chain: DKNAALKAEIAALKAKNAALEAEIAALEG
# assay_notes: two-hybrid library CCmax;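 note: natural log of median RNA to DNA barcode read ratio; higher means stronger binding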
# assay_conditions: mean of both orientations
interaction score by entry:
Please reply with the number alone, leaving off any unit.

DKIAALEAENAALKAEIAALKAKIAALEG [4H2253-AA] | -1.65
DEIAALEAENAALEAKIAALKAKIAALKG [4H174-AA] | -0.364

Item under review: DKNAALEAKIAALEAKNAALEAEIAALKG [4H3378-AA] . Reported interaction score? -1.32

Item under review: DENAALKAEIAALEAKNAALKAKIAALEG [4H1597-AA] . Reported interaction score? 0.353

Dear colleague, I am looking for the recorded interaction score of the following binder: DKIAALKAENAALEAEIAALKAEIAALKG [4H2698-AA] -1.12

Requested read-out: interaction score. Entry: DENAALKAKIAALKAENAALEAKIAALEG [4H1877-AA] -0.0749

Requested read-out: interaction score. Entry: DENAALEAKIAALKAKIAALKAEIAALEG [4H1385-AA] -0.69
